Recorded measurements of Cell Inhibition% @10 nM, one per entry
- subject.of.test: PDE4B2 (Homo sapiens, UniProt Q07343)
- Construct: expressed in transfected cells; host or cells: Flp-In-293 (Flpin-293-PDE4B2 [sic])
- Sequence (Q07343 1-564 isoform Q07343-2): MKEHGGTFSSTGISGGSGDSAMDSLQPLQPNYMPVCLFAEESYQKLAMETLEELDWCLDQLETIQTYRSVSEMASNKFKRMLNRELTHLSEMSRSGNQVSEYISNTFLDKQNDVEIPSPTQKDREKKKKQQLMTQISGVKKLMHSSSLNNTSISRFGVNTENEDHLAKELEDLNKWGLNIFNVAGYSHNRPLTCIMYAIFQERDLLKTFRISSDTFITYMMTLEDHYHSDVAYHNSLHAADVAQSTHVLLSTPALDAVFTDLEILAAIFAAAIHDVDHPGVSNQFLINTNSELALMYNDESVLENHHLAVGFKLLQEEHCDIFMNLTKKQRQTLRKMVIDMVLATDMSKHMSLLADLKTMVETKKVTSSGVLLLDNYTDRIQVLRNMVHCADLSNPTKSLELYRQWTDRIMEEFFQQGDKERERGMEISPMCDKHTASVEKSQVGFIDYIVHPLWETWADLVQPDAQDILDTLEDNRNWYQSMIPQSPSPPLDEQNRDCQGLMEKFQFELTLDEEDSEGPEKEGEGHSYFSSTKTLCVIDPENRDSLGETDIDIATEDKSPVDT
- test.protocol: PDE4B2 cell experiment (cAMP, Eu-cAMP tracer / Ulight-anti-cAMP)
- Assay type: cell-based
- test.conditions: Flpin-293-PDE4B2 cells, 10 nM
Your answer is read as %, so omit the unit and give the number.

// solved cases for Cell Inhibition% @10 nM follow
>  <compound>
[O-][S+]1CCc2nc(N3CC[C@H]4c5ccc(Cl)cc5OC[C@H]4C3)nc(NC3(CO)CCC3)c21 (stereo partly drawn)

>  <Cell Inhibition% @10 nM / %>
16.91

$$$$
>  <compound>
[O-][n+]1cc2c(c3ccc(Cl)cc31)CCN(c1nc3c(c(NC4(CO)CCC4)n1)[S+]([O-])CC3)C2 (stereo not drawn)

>  <Cell Inhibition% @10 nM / %>
21.18

$$$$
>  <compound>
[O-][S+]1CCc2nc(N3CCc4sc(Br)cc4C3)nc(NC3(CO)CCC3)c21 (stereo not drawn)

>  <Cell Inhibition% @10 nM / %>
52.78

$$$$
>  <compound>
CN1CCN(c2ccc3c(c2)CCN(c2nc4c(c(NC5(CO)CCC5)n2)[S+]([O-])CC4)C3)C1=O (stereo not drawn)

>  <Cell Inhibition% @10 nM / %>
63.13

$$$$
>  <compound>
[O-][S+]1CCc2nc(N3CCc4cccc(Cl)c4C3)nc(NC3(CO)CCC3)c21 (stereo not drawn)

>  <Cell Inhibition% @10 nM / %>
18.76

$$$$

Now examine the next entry.
# input Using the record for [O-][S+]1CCc2nc(N3CC[C@@H]4c5ccc(Br)cc5OC[C@H]4C3)nc(NC3(CO)CCC3)c21 (stereo partly drawn) , report its Cell Inhibition% @10 nM.
# output 39.69
